These entries and their values trace back to the RepoRT retention time repository (doi:10.1007/s00216-021-03828-0).

assay: RP, Merck Supelco Ascentis Express C18, 100 × 2.1 mm, 2 µm, 40 °C, 0.25 mL/min, estimated dead time 0.88 min; A: water + 0.1% formic acid, pH 3; B: acetonitrile + 0.1% formic acid, pH 3; gradient (min/%B) 0/5 2/5 17/99.9 20/99.9; settings: stereoisomer not certain
recorded_endpoint: LC retention time (min)

Guide cases for LC retention time, answers given:
compound: Cc1ncc(CO)c(C(=O)O)c1O [4-PYRIDOXATE]
LC retention time [min]: 1.23

compound: O=C(O)c1ccc(O)c(O)c1 [3,4-DIHYDROXYBENZOATE]
LC retention time [min]: 2.44

compound: CC(O)c1ccccc1 (stereo unspecified)
LC retention time [min]: 7.9

compound: CC(=O)Oc1ccccc1 [PHENYL ACETATE]
LC retention time [min]: 4.9

compound: O=C(O)CCc1ccccc1O [3-(2-HYDROXYPHENYL)PROPANOATE]
LC retention time [min]: 6.14

compound: CC1OC(n2cnc3c(N)ncnc32)C(O)C1O (stereo unspecified)
LC retention time [min]: 1.49

I: Nc1nc2c(ncn2C2OC(CO)C(O)C2O)c(=O)[nH]1 (stereo unspecified)
II: CCCCCCCCCCCCCCCC(O)C(N)CO (stereo unspecified)
// returns I or II , whichever has the lower LC retention time Write down the label attached to your selection.
I

a: CC(=O)NC(CS)C(=O)O (stereo unspecified)
b: N[C@@H](Cc1cc(I)c(Oc2ccc(O)cc2)c(I)c1)C(=O)O
Given a and given b , which shows the smaller recorded LC retention time? State the label of the item chosen.
a
